Target: Telomeric repeat-binding factor 2 (Homo sapiens)
Sequence (Q15554 whole entry): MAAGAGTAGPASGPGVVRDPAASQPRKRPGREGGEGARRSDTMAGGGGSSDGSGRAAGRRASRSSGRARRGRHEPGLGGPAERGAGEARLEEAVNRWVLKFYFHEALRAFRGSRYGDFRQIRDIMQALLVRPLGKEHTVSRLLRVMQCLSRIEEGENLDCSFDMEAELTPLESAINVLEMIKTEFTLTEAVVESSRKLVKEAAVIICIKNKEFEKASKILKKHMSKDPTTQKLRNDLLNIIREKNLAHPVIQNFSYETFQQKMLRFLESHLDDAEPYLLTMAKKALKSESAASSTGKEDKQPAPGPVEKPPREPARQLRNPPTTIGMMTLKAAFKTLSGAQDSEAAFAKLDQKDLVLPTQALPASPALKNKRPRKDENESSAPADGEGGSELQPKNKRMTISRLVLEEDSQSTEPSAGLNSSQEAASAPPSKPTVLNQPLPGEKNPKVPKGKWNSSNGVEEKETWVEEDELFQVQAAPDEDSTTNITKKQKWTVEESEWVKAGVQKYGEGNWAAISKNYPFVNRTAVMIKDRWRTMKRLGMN
Square brackets hold non-standard residues; d marks the D form. Peptide text beside a SMILES is read from it. Gly(cPent) = N[C@H](C(=O)O)C1CCCC1
Parameter pKi: see the listing below.
# pKi is unitless: minus log10 of the molar concentration; print number only

// returns reported pKi for input CC(C)C[C@H](NC(=O)[C@H](Cc1ccc(O)cc1)NC(=O)[C@H](CCCCN)NC(=O)[C@@H](N)CC(C)C)C(=O)N[C@@H](CC(C)C)C(=O)N[C@H](C(=O)N1CCC[C@H]1C(=O)N[C@H](C(=O)O)C(C)C)[C@@H](C)O (H-LKYLLTPV-OH) 4.57

Fill in: pKi of CC(=O)N[C@@H](CC(C)C)C(=O)N[C@@H](C)C(=O)N[C@@H](CC(C)C)C(=O)N[C@@H](CCCCN)C(=O)N[C@@H](Cc1ccc(O)cc1)C(=O)N[C@@H](CC(C)C)C(=O)N[C@H](C(=O)N[C@H](C(=O)N1CCC[C@H]1C(=O)N[C@H](C(N)=O)C(C)C)[C@@H](C)O)C1CCCC1 (Ac-LALKYL[Gly(cPent)]TPV-NH2) is ___ 6.29

----------
Biological target: Telomeric repeat-binding factor 2 (Homo sapiens)
Sequence (Q15554 whole entry): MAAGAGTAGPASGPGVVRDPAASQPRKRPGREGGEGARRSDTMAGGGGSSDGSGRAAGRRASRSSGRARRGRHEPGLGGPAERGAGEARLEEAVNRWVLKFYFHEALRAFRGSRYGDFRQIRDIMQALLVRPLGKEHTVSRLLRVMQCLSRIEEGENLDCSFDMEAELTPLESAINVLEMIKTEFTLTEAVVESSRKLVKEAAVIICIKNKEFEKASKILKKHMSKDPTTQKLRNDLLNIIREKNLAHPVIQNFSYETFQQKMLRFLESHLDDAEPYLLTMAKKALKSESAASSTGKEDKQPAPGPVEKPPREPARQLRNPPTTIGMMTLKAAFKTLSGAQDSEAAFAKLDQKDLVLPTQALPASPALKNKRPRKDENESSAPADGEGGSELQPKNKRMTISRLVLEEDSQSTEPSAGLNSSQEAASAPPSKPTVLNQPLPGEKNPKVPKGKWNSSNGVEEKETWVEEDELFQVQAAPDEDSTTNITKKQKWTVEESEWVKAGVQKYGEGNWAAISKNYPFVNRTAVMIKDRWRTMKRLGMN
Square brackets hold non-standard residues; d marks the D form. Peptide text beside a SMILES is read from it. Chg = N[C@H](C(=O)O)C1CCCCC1
READOUT LABEL: Ki (µM)

Below are worked cases with known answers.
{"columns": ["MOLECULE", "EXPERIMENTAL TARGET", "Ki, µM"],
 "data": [
  ["CC(=O)N[C@@H](CC(C)C)C(=O)N[C@@H](C)C(=O)N[C@@H](CC(C)C)C(=O)N[C@@H](CCCCN)C(=O)N[C@@H](Cc1ccc(O)cc1)C(=O)N[C@@H](CC(C)C)C(=O)N[C@@H](CC(C)C)C(=O)N[C@H](C(=O)N1CCC[C@H]1C(=O)N[C@H](C(=O)O)C(C)C)[C@@H](C)O (Ac-LALKYLLTPV-OH)", "Telomeric repeat-binding factor 2 (Homo sapiens)", 0.34],
  ["CC(=O)N[C@@H](CC(C)C)C(=O)N[C@@H](C)C(=O)N[C@@H](CC(C)C)C(=O)N[C@@H](CCCCN)C(=O)N[C@@H](Cc1ccccc1)C(=O)N[C@@H](CC(C)C)C(=O)N[C@@H](CC(C)C)C(=O)N[C@H](C(=O)N1CCC[C@H]1C(=O)N[C@H](C(N)=O)C(C)C)[C@@H](C)O (Ac-LALKFLLTPV-NH2)", "Telomeric repeat-binding factor 2 (Homo sapiens)", 3.4],
  ["CC(C)C[C@H](NC(=O)CN)C(=O)N[C@@H](C)C(=O)N[C@@H](CC(C)C)C(=O)N[C@@H](CCCCN)C(=O)N[C@@H](Cc1ccc(O)cc1)C(=O)N[C@@H](CC(C)C)C(=O)N[C@@H](CC(C)C)C(=O)N[C@H](C(=O)N1CCC[C@H]1C(=O)N[C@H](C(=O)O)C(C)C)[C@@H](C)O (H-GLALKYLLTPV-OH)", "Telomeric repeat-binding factor 2 (Homo sapiens)", 0.38],
  ["CC(=O)N[C@@H](CC(C)C)C(=O)N[C@@H](C)C(=O)N[C@@H](CC(C)C)C(=O)N[C@@H](CCCCN)C(=O)N[C@@H](Cc1ccc(O)cc1)C(=O)N[C@@H](CC(C)C)C(=O)N[C@H](C(=O)N[C@H](C(=O)N1CCC[C@H]1C(=O)N[C@H](C(N)=O)C(C)C)[C@@H](C)O)C1CCCCC1 (Ac-LALKYL[Chg]TPV-NH2)", "Telomeric repeat-binding factor 2 (Homo sapiens)", 0.21]
]}

A. CC(C)C[C@H](NC(=O)[C@H](C)N)C(=O)N[C@@H](CCCCN)C(=O)N[C@@H](Cc1ccc(O)cc1)C(=O)N[C@@H](CC(C)C)C(=O)N[C@@H](CC(C)C)C(=O)N[C@H](C(=O)N1CCC[C@H]1C(=O)N[C@H](C(=O)O)C(C)C)[C@@H](C)O (H-ALKYLLTPV-OH)
B. CC(C)C[C@@H]1NC(=O)[C@@H](NC(=O)[C@H](Cc2ccccc2)NC(=O)CCc2ccccc2)CCCCCCC[C@@H](C(=O)N(C)C)NC(=O)[C@@H]2CCCN2C(=O)[C@H](C)NC1=O
Which of the two gives a bigger number for Ki: A or B ? Respond with the label that goes with your answer. A
(A: 22.8 µM, B: 11.2 µM)

----------
target: Telomeric repeat-binding factor 2 (Homo sapiens); test: Displacement of 5-((2R,6S,9S,12S,15S,18S,21S,24S)-3-((S)-2-((S)-1-amino-3-methyl-1-oxobutan-2-ylcarbamoyl)pyrrolidine-1-carbonyl)-15-(4-aminobutyl)-2-hydroxy-12-(4-hydroxybenzyl)-6,9,18,24-tetraisobutyl-21-methyl-5,8,11,14,17,20,23,26,29-nonaoxo-4,7,10,13,16,19,22,25,28-nonaazatetratriacontan-34-ylcarbamoyl)-2-(6-hydroxy-3-oxo-3H-xanthen-9-yl)benzoic acid from TRF2 TRFH domain (unknown origin) after 30 mins by fluorescence polarization assay
Square brackets hold non-standard residues; d marks the D form. Peptide text beside a SMILES is read from it. Phe(4-NH2) = Nc1ccc(C[C@H](N)C(=O)O)cc1; Nva = CCC[C@H](N)C(=O)O
READOUT LABEL: Ki (µM)

Here is how some compounds turned out for Ki.
{"columns": ["COMPOUND", "READOUT LABEL", "UNIT DESCRIPTOR", "RESULT"],
 "data": [
  ["CC(=O)N[C@@H](CC(C)C)C(=O)N[C@@H](C)C(=O)N[C@@H](CC(C)C)C(=O)N[C@@H](CCCCN)C(=O)N[C@@H](Cc1ccc(O)cc1)C(=O)N[C@@H](CC(C)C)C(=O)N[C@@H](CC(C)C)C(=O)N[C@@H](C)C(=O)N1CCC[C@H]1C(=O)N[C@H](C(N)=O)C(C)C (Ac-LALKYLLAPV-NH2)", "Ki", "µM", 0.24],
  ["CC(=O)N[C@@H](CC(C)C)C(=O)N[C@@H](C)C(=O)N[C@@H](CC(C)C)C(=O)N[C@@H](CCCCN)C(=O)N[C@@H](Cc1ccc(O)cc1)C(=O)N[C@@H](CC(C)C)C(=O)N[C@@H](CC(C)C)C(=O)N[C@H](C(=O)N1CCC[C@H]1C(=O)O)[C@@H](C)O (Ac-LALKYLLTP-OH)", "Ki", "µM", 1.89],
  ["CC(=O)N[C@@H](CC(C)C)C(=O)N[C@@H](C)C(=O)N[C@@H](CC(C)C)C(=O)N[C@@H](CCCCN)C(=O)N[C@@H](Cc1ccc(N)cc1)C(=O)N[C@@H](CC(C)C)C(=O)N[C@@H](CC(C)C)C(=O)N[C@H](C(=O)N1CCC[C@H]1C(=O)N[C@H](C(N)=O)C(C)C)[C@@H](C)O (Ac-LALK[Phe(4-NH2)]LLTPV-NH2)", "Ki", "µM", 0.72],
  ["CCC[C@H](NC(=O)[C@H](CC(C)C)NC(=O)[C@H](Cc1ccc(O)cc1)NC(=O)[C@H](CCCCN)NC(=O)[C@H](CC(C)C)NC(=O)[C@H](C)NC(=O)[C@H](CC(C)C)NC(C)=O)C(=O)N[C@H](C(=O)N1CCC[C@H]1C(=O)N[C@H](C(N)=O)C(C)C)[C@@H](C)O (Ac-LALKYL[Nva]TPV-NH2)", "Ki", "µM", 4.7]
]}

1. CC(=O)N[C@@H](CC(C)C)C(=O)N[C@@H](C)C(=O)N[C@@H](CC(C)C)C(=O)N[C@@H](CCCCN)C(=O)N[C@@H](Cc1ccc(O)cc1)C(=O)N[C@@H](CC(C)C)C(=O)N[C@@H](CC(C)C)C(=O)N[C@H](C(=O)O)[C@@H](C)O (Ac-LALKYLLT-OH)
2. CC(=O)N[C@@H](CC(C)C)C(=O)N[C@@H](C)C(=O)N[C@@H](CC(C)C)C(=O)N[C@@H](CCCCN)C(=O)N[C@@H](Cc1ccc(O)cc1)C(=O)N[C@@H](CC(C)C)C(=O)N[C@@H](CC(C)C)C(=O)O (Ac-LALKYLL-OH)
3. CC(=O)N[C@@H](CC(C)C)C(=O)N[C@@H](C)C(=O)N[C@@H](CC(C)C)C(=O)N[C@@H](CCCCN)C(=O)N[C@@H](Cc1ccc(O)cc1)C(=O)N[C@@H](CC(C)C)C(=O)O (Ac-LALKYL-OH)
Ascending by Ki, please. Your reply should list the labels following the order given in the request. 1, 2, 3
